System: U2OS
Test: Multiplex assay against U2OS
Type: toxicity, cell-based
Settings: human, 24 h, 1 µM, compound concentration 1 uM, replicate 1
I'd be grateful if you could share measured Population Fragmented Nuclei (%) for these entries.

>>> result("CCn1cc(-c2ccnc3[nH]c(-c4cccc(CN(C)C)c4)cc23)c(-c2ccc(NC(=O)N(C)C)cc2)n1")
"6%"

I'm hoping you can list Population Fragmented Nuclei (%) for every compound here, please.
1. S=C(NCCCc1c[nH]cn1)NCCCN(Cc1ccc(Cl)c(Cl)c1)c1ccc(Br)cn1
2. CCOC(=O)c1c(C)[nH]c2ccc3c(c12)CN1CCc2cc(OC)ccc2C1O3 (stereo not given)
3. O=C1NC(=O)C(c2cnc3ccccn23)=C1c1cn2c3c(cc(F)cc13)CN(C(=O)N1CCCCC1)CC2
4. CCn1c(=O)c(-c2ccc(-c3cncs3)cc2Cl)cc2cnc(Nc3ccc(N4CCN(C)CC4)cc3)nc21
5. Cc1cc(C)c(S(=O)(=O)N(Cc2ccc(-c3cccc(S(C)(=O)=O)c3)cc2)Cc2ccc(C(F)(F)F)o2)c(C)c1

1: 10%; 2: 8%; 3: 13%; 4: 10%; 5: 10%

Dear colleague, could you send me Population Fragmented Nuclei (%) for each of the items below? Thanks.
1. O=C(Nc1ccc(-n2nc(-c3cccnc3)cc2C(F)(F)F)cn1)c1ccc(-c2ccccc2)c(F)c1
2. CCCn1c(=O)c2[nH]c(-c3cnn(Cc4cccc(C(F)(F)F)c4)c3)nc2n(CC)c1=O
3. NC(=O)c1cccc(-c2cc(Nc3ccc(OC(F)(F)F)cc3)ncn2)c1
4. COc1ccc(S(=O)(=O)N(CCO)c2ccccc2CN(C)C/C=C/c2ccc(Cl)cc2)cc1.O=P(O)(O)O
5. COc1cccc2cc(-c3nc([C@H]4CC[C@H](C(=O)O)CC4)n4ncnc(N)c34)[nH]c12

1: 8%; 2: 8%; 3: 2%; 4: 14%; 5: 10%

Please give Population Fragmented Nuclei (%) for each item listed below.
1. Cc1cn(-c2cc(NC(=O)c3ccc(C)c(Nc4nccc(-c5cccnc5)n4)c3)cc(C(F)(F)F)c2)cn1
2. O=C1N/C(=N/c2ccccc2F)S/C1=C\c1ccc(C(=O)O)cc1
3. Cn1nc(C(F)(F)F)cc1-c1cnc(N2CCc3cc(S(=O)(=O)Nc4c(F)cc(Cl)cc4F)cc(N4CCCC4=O)c32)nc1
4. Cc1ccc2nc(NCCN)c3ncc(C)n3c2c1.O=C(O)C(F)(F)F.O=C(O)C(F)(F)F
5. CNC(=O)c1ccc(Nc2nc(OC3CCCC3)c3c(-c4ccc5nc(C)oc5c4)c[nH]c3n2)c(OC)c1
6. O=C(Nc1ccc(-c2ccnc(Nc3ccc(N4CCOCC4)cc3)n2)cc1)[C@@H]1CCCN1
7. Cl.O=C(c1ccc(Nc2nccc(-c3cc4ccccc4s3)n2)cc1)N1CCC(N2CCCC2)CC1
8. O=C(Nc1cccnn1)N1CCC(=Cc2cccc(Oc3ccc(C(F)(F)F)cn3)c2)CC1

12%
9%
2%
2%
12%
8%
10%
2%

Please go through the list and note Population Fragmented Nuclei (%) for each compound.
1. COc1cc(N2CCN(C)CC2)ccc1Nc1ncc2c(n1)N(C)c1ccccc1C(=O)N2C
2. CCc1cccc(CC)c1NC(=O)c1nn(C)c2c1CCc1cnc(Nc3ccc(C(=O)NC4CCN(C)CC4)cc3OC(F)(F)F)nc1-2
3. CCCS(=O)(=O)Nc1ccc(F)c(C(=O)c2c[nH]c3ncc(Cl)cc23)c1F
4. CCN1CCN(c2ccc(Nc3cc(N(C)C(=O)Nc4c(Cl)c(OC)cc(OC)c4Cl)ncn3)cc2)CC1
5. CCc1cccc(CC)c1NC(=O)c1nn(C)c2c1CCc1cnc(Nc3ccc(N4CCN(C)CC4)cc3OC)nc1-2
6. CNc1cc(Oc2cc(C(=O)Nc3cc(N4CCN(C)CC4)cc(C(F)(F)F)c3)ccc2C)ncn1

["11%", "15%", "5%", "16%", "30%", "11%"]

###

Tested on: U2OS
Experiment: Multiplex assay against U2OS
Format: toxicity, cell-based
Details: human, 24 h, 1 µM, compound concentration 1 uM, replicate 1
measured_quantity: Population Hoechst High Intensity Objects (%)
Answers are plain numbers, in %.

// known answers, use as guide
>>> numeric_readout("Cl.O=C(c1ccc(Nc2nccc(-c3cc4ccccc4s3)n2)cc1)N1CCC(N2CCCC2)CC1")
3
>>> numeric_readout("CN[C@@H]1C[C@H]2O[C@@](C)([C@@H]1OC)n1c3ccccc3c3c4c(c5c6ccccc6n2c5c31)C(=O)NC4 [STAUROSPORINE]")
14
>>> numeric_readout("O=C(Nc1ccc(-c2ccnc(Nc3ccc(N4CCOCC4)cc3)n2)cc1)[C@@H]1CCCN1")
3

Provide the reported Population Hoechst High Intensity Objects (%) of each entry below, same order.
1. C=CCn1c(=O)c2cnc(Nc3ccc(N4CCN(C)CC4)cc3)nc2n1-c1cccc(C(C)(C)O)n1 [ADAVOSERTIB]
2. Cc1cc(C)c(S(=O)(=O)N(Cc2ccc(-c3cccc(S(C)(=O)=O)c3)cc2)Cc2ccc(C(F)(F)F)o2)c(C)c1
3. COc1cc(N2CCN(C)CC2)ccc1Nc1ncc2c(n1)N(C)c1ccccc1C(=O)N2C
4. O=C1NC(=O)C(c2cnc3ccccn23)=C1c1cn2c3c(cc(F)cc13)CN(C(=O)N1CCCCC1)CC2 [LY-2090314]
5. CN(C)C(=O)C(CCN1CCC(O)(c2ccc(Cl)cc2)CC1)(c1ccccc1)c1ccccc1.Cl [LOPERAMIDE HYDROCHLORIDE]

1. 8
2. 3
3. 5
4. 3
5. 5

###

Tested on: U2OS
Assay: Multiplex assay against U2OS
Type: toxicity, cell-based
Settings: human, 12 h, 10 µM, compound concentration 10 uM, replicate 2
Please provide measured Population Fragmented Nuclei (%) for the entries that follow.

Previously resolved entries follow.
>>> result("COc1cc2ncnc(Nc3ccc(F)c(Cl)c3)c2cc1NC(=O)/C=C/CN1CCCCC1 [DACOMITINIB ANHYDROUS]")
"14%"
>>> result("CCCS(=O)(=O)c1nc(NC2CC2)cc(-c2ccc3c(ccn3C3CC(C)(C)NC(C)(C)C3)c2)n1")
"75%"
>>> result("CN1CCN(C(=O)C(C)(C)c2ccc(C(=O)Nc3cn4cc(-c5cc(C(C)(C)C)cc(C(C)(C)C)c5)ccc4n3)cc2)CC1")
"16%"
>>> result("O=C(Nc1ccc(Cl)cc1)Nc1cccc(-c2cccc(N3CCCC3)n2)c1")
"3%"
>>> result("COCC(=O)NC/C=C/c1ccc2ncnc(Nc3ccc(Oc4ccc(C)nc4)c(C)c3)c2c1")
"18%"

List reported Population Fragmented Nuclei (%) for each of these compounds:
1. NC(=O)c1cccc(-c2cc(Nc3ccc(OC(F)(F)F)cc3)ncn2)c1
2. COc1cccc2cc(-c3nc([C@H]4CC[C@H](C(=O)O)CC4)n4ncnc(N)c34)[nH]c12
3. Cc1cc(C)c(S(=O)(=O)N(Cc2ccc(-c3cccc(S(C)(=O)=O)c3)cc2)Cc2ccc(C(F)(F)F)o2)c(C)c1
4. C=CCn1c(=O)c2cnc(Nc3ccc(N4CCN(C)CC4)cc3)nc2n1-c1cccc(C(C)(C)O)n1
5. COC(=N)c1nc2ccc3ncnc(Nc4ccc(OC)cc4F)c3c2s1
6. CCCn1c(=O)c2[nH]c(-c3cnn(Cc4cccc(C(F)(F)F)c4)c3)nc2n(CC)c1=O
7. CCc1cccc(CC)c1NC(=O)c1nn(C)c2c1CCc1cnc(Nc3ccc(C(=O)NC4CCN(C)CC4)cc3OC(F)(F)F)nc1-2
8. CN(C)C(=O)C(CCN1CCC(O)(c2ccc(Cl)cc2)CC1)(c1ccccc1)c1ccccc1.Cl [LOPERAMIDE HYDROCHLORIDE]

1: 4%; 2: 14%; 3: 14%; 4: 22%; 5: 13%; 6: 17%; 7: 12%; 8: 8%

Dear colleague, could you send me Population Fragmented Nuclei (%) for each of the items below? Thanks.
1. CCOC(=O)c1c(C)[nH]c2ccc3c(c12)CN1CCc2cc(OC)ccc2C1O3 (configuration not stated)
2. CCN1CCN(Cc2ccc(Nc3ncc(F)c(-c4cc(F)c5nc(C)n(C(C)C)c5c4)n3)nc2)CC1.CS(=O)(=O)O
3. O=C1N/C(=N/c2ccccc2F)S/C1=C\c1ccc(C(=O)O)cc1
4. COc1ccc(-c2ccc3c(N4CCOCC4)nc(N4C[C@@H](C)O[C@@H](C)C4)nc3n2)cc1CO

2%
32%
4%
37%

###

Test system: HEK-293T
Assay: Incucyte cell viability with HEK293T; note: filed as whole numbers so only -1 and 0 and 1 occur
Format: toxicity, cell-based
Conditions: human, 24 h, 10 µM, compound concentration 10 uM, replicate number 2, timepoint 24 hours
I'd be grateful if you could share measured Growth Rate for these entries.
One number for each entry.

Give measured Growth Rate for every item shown.
1. COc1cc(N2CCC(N3CCN(C)CC3)CC2)ccc1Nc1ncc(Cl)c(Nc2ccccc2P(C)(C)=O)n1
2. Cl.O=C([C@@H](Cc1cccc(C(F)(F)F)c1)NS(=O)(=O)c1cc(F)c2c(c1)CCNC2)N1CCCC1
3. C[C@@H]1CN(c2cc(-c3n[nH]c4ccc(OC5(C)CC5)cc34)ncn2)C[C@H](C)O1
4. CO[C@H]1CC[C@H](CNc2ccc(S(=O)(=O)NC(=O)c3ccc(N4CCN(CC5=C(c6ccc(Cl)cc6)CC(C)(C)CC5)CC4)cc3Oc3cnc4[nH]ccc4c3)cc2[N+](=O)[O-])CC1
5. CN(C)C(=O)c1cc2cnc(Nc3ccc(N4CCNCC4)cn3)nc2n1C1CCCC1

1: 0; 2: 1; 3: 0; 4: 0; 5: 0

State the recorded Growth Rate for every item in the following list.
1. CCn1c(=O)c(-c2ccc(-c3cncs3)cc2Cl)cc2cnc(Nc3ccc(N4CCN(C)CC4)cc3)nc21
2. Nc1cc(F)ccc1NC(=O)/C=C/c1cnn(C/C=C/c2ccccc2)c1
3. Cc1ccc(-c2ccc3c(ccc4sc5c(c43)NC[C@@H](C)NC5=O)n2)cn1
4. CN1CCN(c2cnc3c(C4CCN(C(=O)c5ccc(OC(F)(F)F)cc5N)CC4)ncnc3c2)CC1
5. C#C[C@]1(O)CC[C@H]2[C@@H]3CCc4cc(O)ccc4[C@H]3CC[C@@]21C
6. Cc1cn(-c2cc(NC(=O)c3ccc(C)c(Nc4nccc(-c5cccnc5)n4)c3)cc(C(F)(F)F)c2)cn1
7. O=C1NC(c2ccccn2)Sc2ccccc21 (configuration not stated)
8. Cc1oncc1C(=O)Nc1ccc(C(F)(F)F)cc1 [LEFLUNOMIDE]

0
0
1
1
1
1
0
1

Give Growth Rate for each listed item.
1. O=C1NC(=O)C(c2cnc3ccccn23)=C1c1cn2c3c(cc(F)cc13)CN(C(=O)N1CCCCC1)CC2
2. COc1ccnc(N2CCC3(CCCN(Cc4c[nH]c5ccccc45)C3=O)CC2)n1
3. CC(C)(C)OC(=O)N1CCCC1CNC1CCC(c2cc(F)ccc2F)(S(=O)(=O)c2ccc(Cl)cc2)CC1 (configuration not stated)
4. CCCCCNC(=O)NS(=O)(=O)c1cc([N+](=O)[O-])ccc1NC1CCCCC1

1: 0; 2: 0; 3: 0; 4: 0

The values you see were collected from ChEMBL document CHEMBL4689842.
